- test-target: T1, full length human GLP-1R with N-terminal FLAG tag and C-terminal GFP tag, on CHO cells (human, UniProt P43220 24-463)
- T1 construct: whole, on cells; the cell line itself is tied to UniProt P43220; also called FLAG-GLP-1R-GFP; CHO-GLP-1R
- assay-comment: flow cytometry titration, CHO GLP1R cells
What Bmax was measured for each of the following?
Form field (numeric): enter value without unit.

Ask | # input binder: GLP1R-222-012 (antibody, V domains shown, IgG) VH: QVQLVESGGGVVQPGRSLRLSCAASGFTFNNYGMHWVRQAPGKGLEWVAVISDEGSNKYYADSVKGRFTISRDNSKNTLYLQMNSLRAEDTAVYYCAKHMSMQEGAVTGVGQAAKEFIAWLVKGRVRADLVGDAFDVWGQGTLVTVSS VL: QSVLTQPPSVSAAPGQKVTISCSGSSSNIGNNDVSWYQQLPGTAPKLLIYDDDKRPSGIPDRFSGSKSGTSATLGITGLQTGDEADYYCGTWDTSLSVGEFGGGTKLTVL ; wanted: its Bmax
Reply | 234000

Ask | Next entry: GLP1R-222-052 (antibody, V domains shown, IgG) VH: QVQLVESGGGVVQPGRSLRLSCAASGFTFNNYPMHWVRQAPGKGLEWVAVISYDESNKYYADSVKGRFTISRDNSKNTLYLQMNSLRAEDTAVYYCAKHMSMQEGAVTGGGQAAKEFIAWLVKGRVRADLVGDAFDVWGQGTLVTVSS VL: QSVLTQPPSVSAAPGQKVTISCSGSSSNIGKRSVSWYQQLPGTAPKLLIYDNNKRASGIPDRFSGSKSGTSATLGITGLQTGDEADYYCVTWDRSLSAGVFGGGTKLTVL
Reply | 228000

Ask | Next entry: GLP1R-222-023 (antibody, V domains shown, IgG) VH: QVQLVESGGGVVQPGRSLRLSCAASGFSFSDYGMHWVRQAPGKGLEWVAFISYDANNKYYADSVKGRFTISRDNSKNTLYLQMNSLRAEDTAVYYCAKHMSMQEGAVTGEWQAAKEFIAWLVKGRVRADLVGDAFDVWGQGTLVTVSS VL: QSVLTQPPSVSAAPGQKVTISCSGSSSNIGNNDVSWYQQLPGTAPKLLIYENTKRPSGIPDRFSGSKSGTSATLGITGLQTGDEADYYCGTWDAGLSTGVFGGGTKLTVL
Reply | 220000
